Test system: Human immunodeficiency virus 1
Assay: Concentration required to inhibit the viral (HIV-1 NNRTI resistant strain) cytopathic effect by 50% in MT-4 cells.
Format: functional, organism-based
Details: Human immunodeficiency virus 1, MT4
pIC50: −log10 of the molar value.
pIC50 values for the compounds below.
measured_parameter: pIC50

> print(dat)
                                    compound  result
 1  CCC1N=C(S)N(Nc2cccc(Cl)c2)C1c1ccccc1 (centres undefined)  < 4.41
 2  CC1N=C(S)N(Nc2cccc(Br)c2)C1c1ccccc1 (centres undefined)    5.24
 3  CC(=O)c1ccc(C)cc1NC(C(N)=O)c1c(Cl)cccc1Cl (centres undefined) [LOVIRIDE]  < 5.00
 4  Cc1ccc(NN2C(S)=NC(C)C2c2ccccc2)cc1C (centres undefined)  < 4.26
 5       Cc1nc(S)n(Nc2cccc(Cl)c2)c1-c1ccccc1    5.01
 6     Cc1nc(S)n(Nc2cccc3ccccc23)c1-c1ccccc1    4.92
 7  Cc1cc(C)cc(NN2C(S)=NC(C)C2c2ccccc2)c1 (centres undefined)  < 3.71
 8  SC1=NC(c2ccccc2)C(c2ccccc2)N1Nc1cccc(Cl)c1 (centres undefined)  < 4.44
 9  CC1N=C(S)N(Nc2cccc(F)c2)C1c1ccccc1 (centres undefined)  ≤ 4.36
10  CC1N=C(S)N(Nc2cccc([N+](=O)[O-])c2)C1c1ccccc1 (centres undefined)    4.37
11  Cc1cccc(NN2C(S)=NC(C(C)C)C2c2ccccc2)c1 (centres undefined)  < 4.37
12   Cc1nc(S)n(Nc2cccc(Cl)c2)c1-c1cccc(Br)c1    5.52
13  CC1N=C(S)N(Nc2cccc(Cl)c2)C1c1cccc(C#N)c1 (centres undefined)  < 4.00
14  Cc1cccc(NN2C(S)=NC(C)C2c2ccccc2)c1 (centres undefined)    4.58
15  COc1cccc(NN2C(S)=NC(C)C2c2ccccc2)c1 (centres undefined)  < 4.42
16   Cc1nc(S)n(Nc2cccc(Cl)c2)c1-c1cccc(Cl)c1    5.73
17   Cc1nc(S)n(Nc2cccc(Cl)c2)c1-c1ccc(Cl)cc1  < 4.39
18   COc1ccc(-c2c(C)nc(S)n2Nc2cccc(Cl)c2)cc1  < 4.41
19  CCC1N=C(S)N(Nc2cccc(C)c2)C1c1ccccc1 (centres undefined)  ≤ 4.27

----------
Tested on: Human immunodeficiency virus 1
Assay: Concentration required to inhibit the viral (HIV-1 NL4.3 strain) cytopathic effect by 50% in MT-4 cells.
Assay type: functional, organism-based
Conditions: Human immunodeficiency virus 1, MT4
measured_parameter: IC50

> print(dat)
                                    compound     result
 1  COC(=O)c1cccc(-c2c(C)ncn2Nc2cccc(Cl)c2)c1  > 33.1 µM
 2        Cc1nc(S)n(Nc2ccc(F)cc2)c1-c1ccccc1   > 220 µM
 3  CC1N=C(S)N(Nc2ccccc2)C1c1ccccc1 (stereo not given)   > 191 µM
 4  Cc1cccc(NN2C(S)=NC(C)C2c2cccc(C#N)c2)c1 (stereo not given)  > 45.6 µM
 5                   Cc1cccc(Nn2cnc(C)c2C)c1   > 312 µM
 6   Cc1nc(S)n(Nc2cccc(Cl)c2)c1-c1cccc(Cl)c1    2.48 µM
 7       Cc1c(-c2ccccc2)nc(S)n1Nc1cccc(Cl)c1    > 50 µM
 8  CC1N=C(S)N(Nc2cccc(F)c2)C1c1ccccc1 (stereo not given)    18.4 µM
 9  CC1N=C(S)N(Nc2cccc(Cl)c2)C1c1cccc(C#N)c1 (stereo not given)      42 µM
10   Cc1nc(S)n(Nc2cccc(Cl)c2)c1-c1cccc(Br)c1     5.6 µM
11  COC(=O)C1N=C(S)N(Nc2cccc(Cl)c2)C1C (stereo not given)  > 48.8 µM
12       Cc1nc(S)n(Nc2ccc(Cl)cc2)c1-c1ccccc1   > 134 µM
13   COc1ccc(-c2c(C)nc(S)n2Nc2cccc(Cl)c2)cc1  > 38.7 µM
14  CC1N=C(S)N(Nc2cc(Cl)ccc2Cl)C1c1ccccc1 (stereo not given)   > 147 µM
15  Cc1cccc(NN2C(S)=NC(C)C2c2cccc(C(=O)O)c2)c1 (stereo not given)   > 187 µM
16          COc1cccc(Nn2cnc(C)c2-c2ccccc2)c1  > 34.4 µM
17  CC1N=C(S)N(Nc2cccc(Cl)c2)C1C (stereo not given)   > 259 µM
18          CCc1ncn(Nc2cccc(C)c2)c1-c1ccccc1  > 27.9 µM
19      Cc1cccc(Nn2cnc(C)c2-c2cccc(C#N)c2)c1  > 44.7 µM
20  SC1=NC(c2ccccc2)C(c2ccccc2)N1Nc1cccc(Cl)c1 (stereo not given)  > 36.3 µM
21                      Cc1ncn(Nc2ccccc2)c1C   > 351 µM
22  COC(=O)c1cccc(C2C(C)N=C(S)N2Nc2cccc(Cl)c2)c1 (stereo not given)  > 67.4 µM
23  Cc1nc(SCc2ccccc2)n(Nc2cccc(Cl)c2)c1-c1ccccc1  > 39.7 µM
24  CCc1ccc(NN2C(S)=NC(C)C2c2ccccc2)cc1 (stereo not given)  > 34.5 µM
25  CCC1N=C(S)N(Nc2cccc(Cl)c2)C1c1ccccc1 (stereo not given)    > 39 µM
26   Cc1cccc(Nn2cnc(C)c2-c2cccc(C(N)=O)c2)c1   > 162 µM
27      CSc1nc(C)c(-c2ccccc2)n1Nc1cccc(Cl)c1  > 42.1 µM
28  CCC1N=C(S)N(Nc2cccc(C)c2)C1c1ccccc1 (stereo not given)    12.8 µM
29  CC1N=C(S)N(Nc2cccc([N+](=O)[O-])c2)C1c1ccccc1 (stereo not given)    11.2 µM
30     Cc1nc(S)n(Nc2cccc3ccccc23)c1-c1ccccc1    6.58 µM
31  CC1N=C(S)N(Nc2cccc(Br)c2)C1c1ccccc1 (stereo not given)    4.52 µM
32  CC1N=C(S)N(Nc2cccc(Cl)c2)C1c1cccc(C(N)=O)c1 (stereo not given)  > 42.2 µM
33  Cc1cccc(NN2C(S)=NC(C)C2C)c1 (stereo not given)   > 360 µM
34  Cc1ccc(NN2C(S)=NC(C)C2c2ccccc2)cc1C (stereo not given)    3.54 µM
35  COc1cccc(NN2C(S)=NC(C)C2c2ccccc2)c1 (stereo not given)    9.79 µM
36  CSc1ccc(NN2C(S)=NC(C)C2c2ccccc2)cc1 (stereo not given)    > 53 µM
37            COC(=O)c1c(C)ncn1Nc1cccc(Cl)c1   > 107 µM
38       Cc1nc(S)n(Nc2cccc(Cl)c2)c1-c1ccccc1    8.99 µM
39  CC1N=C(S)N(Nc2ccccc2)C1C (stereo not given)   > 181 µM
40  Cc1cccc(NN2C(S)=NC(C(C)C)C2c2ccccc2)c1 (stereo not given)  > 42.6 µM
41  COC(=O)C1C(C)N=C(S)N1Nc1cccc(Cl)c1 (stereo not given)   > 190 µM
42  Cc1cccc(NN2C(S)=NC(C)C2c2ccccc2)c1 (stereo not given)    2.17 µM
43  SC1=NC2CCCCC2N1Nc1cccc(Cl)c1 (stereo not given)   > 126 µM
44  Cc1ncn(Nc2cccc(Cl)c2)c1-c1cccc(C(N)=O)c1   > 260 µM
45  CC(=O)c1ccc(C)cc1NC(C(N)=O)c1c(Cl)cccc1Cl (stereo not given) [LOVIRIDE]   0.006 µM
